The reported numbers originate from patent US20160130226A1.

molecular target: AMPK beta 2 (Mus musculus, UniProt Q6PAM0+Q8BRK8); construct: fully differentiated myotubes (C2C12 cells) grown in 96 well plate; endogenous in cells; host or cells: C2C12 myotubes (assignment to the beta 2 column inferred); test: in-cell-ELISA for phospho-ACC: activation of AMPK, beta 2 (HepG2 cells / C2C12 myotubes); assay type: cell-based; conditions: 2 h, 1 μM, percentage activation over vehicle control, read-out: Percentage activation of beta 2 at given concentration
Sequence (Q6PAM0 whole entry): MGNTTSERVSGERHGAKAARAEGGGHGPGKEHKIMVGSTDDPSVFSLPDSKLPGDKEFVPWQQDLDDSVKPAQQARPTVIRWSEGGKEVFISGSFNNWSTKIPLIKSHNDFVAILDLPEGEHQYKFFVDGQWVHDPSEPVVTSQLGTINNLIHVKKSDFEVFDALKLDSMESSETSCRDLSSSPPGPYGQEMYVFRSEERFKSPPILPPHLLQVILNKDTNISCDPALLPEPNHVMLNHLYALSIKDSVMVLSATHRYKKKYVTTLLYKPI
Sequence (Q8BRK8 whole entry): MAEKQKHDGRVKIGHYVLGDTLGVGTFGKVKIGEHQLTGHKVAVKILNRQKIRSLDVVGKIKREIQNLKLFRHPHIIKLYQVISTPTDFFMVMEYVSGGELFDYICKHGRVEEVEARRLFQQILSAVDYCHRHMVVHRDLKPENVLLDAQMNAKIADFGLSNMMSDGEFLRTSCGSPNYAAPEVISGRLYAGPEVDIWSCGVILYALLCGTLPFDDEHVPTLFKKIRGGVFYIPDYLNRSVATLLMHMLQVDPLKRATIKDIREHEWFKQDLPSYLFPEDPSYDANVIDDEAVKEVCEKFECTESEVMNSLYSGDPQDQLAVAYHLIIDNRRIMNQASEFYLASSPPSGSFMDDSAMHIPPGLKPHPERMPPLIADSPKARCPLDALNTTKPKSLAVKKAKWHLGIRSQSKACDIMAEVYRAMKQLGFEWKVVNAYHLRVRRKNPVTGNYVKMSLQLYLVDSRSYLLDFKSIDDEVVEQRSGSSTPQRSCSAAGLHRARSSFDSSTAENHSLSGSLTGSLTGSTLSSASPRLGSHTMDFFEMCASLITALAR
Sequence (O54950 whole entry partner): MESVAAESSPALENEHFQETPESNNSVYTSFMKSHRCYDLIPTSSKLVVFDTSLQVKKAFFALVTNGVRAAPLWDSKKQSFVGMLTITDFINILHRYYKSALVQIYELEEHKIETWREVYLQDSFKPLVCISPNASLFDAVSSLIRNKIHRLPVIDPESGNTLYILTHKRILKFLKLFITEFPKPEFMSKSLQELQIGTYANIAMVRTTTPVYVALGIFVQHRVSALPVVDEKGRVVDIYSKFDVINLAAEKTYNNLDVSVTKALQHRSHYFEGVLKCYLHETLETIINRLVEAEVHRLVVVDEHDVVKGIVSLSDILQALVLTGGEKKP
Tick rule met if activation at 1 µM is 70% or greater. Tick rule not met if activation at 1 µM is less than 70%.

> print(dat)
                                   molecule           cat
1  Cc1ccc(C2CC23C(=O)Nc2cc(Cl)c(-c4ccc(-c5ccc(-n6cncn6)cc5)cc4)cc23)cc1C(=O)O (stereo not shown) [Example 115]      rule met
2  COc1ccc(C2CC23C(=O)Nc2cc(F)c(-c4ccc(-c5ccc(-n6cccn6)cc5)cc4)cc23)cc1CC(=O)O (stereo not shown) [Example 176]      rule met
3  Cc1ccc(C2CC23C(=O)Nc2cc(Cl)c(-c4ccc(-c5ccc(-n6cccn6)cc5)cc4)nc23)cc1C(=O)O (stereo not shown) [Example 138]      rule met
4  Cc1ccc(C2CC23C(=O)Nc2cc(Cl)c(-c4ccc(-c5ccc(-n6cncn6)cc5)cc4)nc23)cc1C(=O)O (stereo not shown) [Example 125]  rule not met
5  CCc1ccc(C2CC23C(=O)Nc2cc(Cl)c(-c4ccc(-c5ccc(-n6cncn6)cc5)cc4)nc23)cc1C(=O)O (stereo not shown) [Example 133]  rule not met
6  Cc1ccc(C2CC23C(=O)Nc2cc(F)c(-c4ccc(-c5ccccc5O)cc4)cc23)cc1CO (stereo not shown) [Example 190]      rule met
7  Cc1ccc(C2CC23C(=O)Nc2cc(F)c(-c4ccc(-c5ccc(-n6cccn6)cc5)cc4)cc23)cc1C(=O)O (stereo not shown) [Example 142]  rule not met
